experiment: Single dose pharmacokinetics (SAD), Example B14; assay type: in vivo, human; settings: human, plasma, oral; single dose 640 mg; geometric mean; read-out: AUC0-24, ng × h/mL
Measured Attribute: AUC(0-t) (ng·h/mL)
I only need the number, in ng·h/mL, no unit after it.

Task item: Could you tell me which AUC(0-t) is on file for "COCCN(CCCCc1ccc2c(n1)NCCC2)CC[C@H](Nc1ncnc2ccccc12)C(=O)O" ?
Reply: 88300

###

test: Single dose pharmacokinetics (SAD), Example B14; format: in vivo, human; details: human, plasma, oral; single dose 320 mg; geometric mean; read-out: AUC0-24, ng × h/mL
Measured Attribute: AUC(0-t) (ng·h/mL)
Please reply with the bare figure in ng·h/mL and do not write the unit itself.

Task item: Which AUC(0-t) is reported for this compound? "COCCN(CCCCc1ccc2c(n1)NCCC2)CC[C@H](Nc1ncnc2ccccc12)C(=O)O"
Reply: 71200

###

test: Multiple dose pharmacokinetics (MAD), Example B14; type: in vivo; settings: human, plasma, oral; 240 mg daily, Day 7; geometric mean; read-out: T1/2 (converted)
Measured Attribute: half-life (h)
Respond numerically; units are h and should not be typed.

Task item: Entry COCCN(CCCCc1ccc2c(n1)NCCC2)CC[C@H](Nc1ncnc2ccccc12)C(=O)O [Compound 5] : reported half-life = ?
Reply: 50.5

###

test: Multiple dose pharmacokinetics (MAD), Example B14; type: in vivo; settings: human, plasma, oral; 240 mg daily, Day 7; geometric mean; read-out: AUC0−24, ng × h/mL
Measured Attribute: AUC(0-t) (ng·h/mL)
State just the number; it will be interpreted in ng·h/mL.

Task item: Data request, read-out AUC(0-t), for COCCN(CCCCc1ccc2c(n1)NCCC2)CC[C@H](Nc1ncnc2ccccc12)C(=O)O [Compound 5]
Reply: 63000

###

assay: Single dose pharmacokinetics (SAD), Example B14; format: in vivo, human; settings: human, plasma, oral; single dose 160 mg; median
Measured Attribute: Tmax (h)
Note: unit h is implicit; provide only the numeric part.

Task item: I would be grateful if you could share the reported Tmax for COCCN(CCCCc1ccc2c(n1)NCCC2)CC[C@H](Nc1ncnc2ccccc12)C(=O)O [Compound 5] .
Reply: 1.95

###

assay: Single dose pharmacokinetics (SAD), Example B14; format: in vivo, human; details: human, oral; single dose 120 mg, plasma total drug; geometric mean
Measured Attribute: half-life (h)
Response body: numeric value in h, unit text excluded.

Task item: Sample "COCCN(CCCCc1ccc2c(n1)NCCC2)CC[C@H](Nc1ncnc2ccccc12)C(=O)O" — what was its half-life?
Reply: 37

###

Experiment: Multiple dose pharmacokinetics (MAD), Example B14
Type: in vivo
Settings: human, plasma, oral; 80 mg daily, Day 7; median
Source text: Accordingly, a study was designed to assess the PK of Compound 5 after a single dose and following a 6-day course of doses, at levels exceeding the dosages used in preceding Examples B12 and B13. This study was designed to assess at these higher doses aspects of the single-dose and steady-state pharmacokinetics of Compound 5. This study was a single-center, randomized, double-blind, ascending dose, placebo-controlled study in healthy participants. […]
Measured Attribute: Tmax (h)
Return type: number; implicit unit h.

Task item: Given the entry "COCCN(CCCCc1ccc2c(n1)NCCC2)CC[C@H](Nc1ncnc2ccccc12)C(=O)O" , report its measured Tmax.
Reply: 3.5

###

experiment: Single dose pharmacokinetics (SAD), Example B14; assay type: in vivo, human; conditions: human, plasma, oral; single dose 480 mg; median
Measured Attribute: Tmax (h)
Write down the numeric answer in h and omit the unit.

Task item: // returns reported Tmax for input "COCCN(CCCCc1ccc2c(n1)NCCC2)CC[C@H](Nc1ncnc2ccccc12)C(=O)O"
Reply: 3

###

test: Multiple dose pharmacokinetics (MAD), Example B14; assay type: in vivo; details: human, plasma, oral; 120 mg daily, Day 7; median
Measured Attribute: Tmax (h)
The reply should contain only the number, in h.

Task item: Entry "COCCN(CCCCc1ccc2c(n1)NCCC2)CC[C@H](Nc1ncnc2ccccc12)C(=O)O" : reported Tmax = ?
Reply: 4.03

###

experiment: Plasma PK, Example B15 Part 1; type: in vivo; conditions: human, 80 mg QD, Day 7, median, initial results
Measured Attribute: Tmax (h)
Give a bare numeral; the unit h is implied.

Task item: What measured Tmax goes with COCCN(CCCCc1ccc2c(n1)NCCC2)CC[C@H](Nc1ncnc2ccccc12)C(=O)O [Compound 5] ?
Reply: 6

###

Test: Multiple dose pharmacokinetics (MAD), Example B14
Type: in vivo
Details: human, plasma, oral; 160 mg daily, Day 7, two cohorts pooled; median
From the text: Accordingly, a study was designed to assess the PK of Compound 5 after a single dose and following a 6-day course of doses, at levels exceeding the dosages used in preceding Examples B12 and B13. This study was designed to assess at these higher doses aspects of the single-dose and steady-state pharmacokinetics of Compound 5. This study was a single-center, randomized, double-blind, ascending dose, placebo-controlled study in healthy participants. […]
Measured Attribute: Tmax
Quote the value and follow it with the unit of measurement.

Task item: What value of Tmax has been recorded for this entry: "COCCN(CCCCc1ccc2c(n1)NCCC2)CC[C@H](Nc1ncnc2ccccc12)C(=O)O"
Reply: 3 h

###

Assay: Single dose pharmacokinetics (SAD), Example B14
Format: in vivo, human
Details: human, oral; single dose 640 mg, plasma total drug; geometric mean
Description: Accordingly, a study was designed to assess the PK of Compound 5 after a single dose and following a 6-day course of doses, at levels exceeding the dosages used in preceding Examples B12 and B13. This study was designed to assess at these higher doses aspects of the single-dose and steady-state pharmacokinetics of Compound 5. This study was a single-center, randomized, double-blind, ascending dose, placebo-controlled study in healthy participants. […]
Measured Attribute: half-life (h)
Answer format: numeric, h implied, no suffix.

Task item: Can you share its half-life? I mean this compound: "COCCN(CCCCc1ccc2c(n1)NCCC2)CC[C@H](Nc1ncnc2ccccc12)C(=O)O"
Reply: 42.3

###

experiment: Binding to plasma proteins, equilibrium dialysis; format: in vitro ADME; conditions: human, plasma of dosed study participants, oral, 20 mg, 20-mg cohort, participants' plasma Day 7; read-out: % unbound, range across participants
Measured Attribute: fraction unbound

Task item: Please report the recorded fraction unbound for "COCCN(CCCCc1ccc2c(n1)NCCC2)CC[C@H](Nc1ncnc2ccccc12)C(=O)O" .
Reply: 0.00182 to 0.0038

###

Catalogue of compounds with associated IC50
Molecular target: recombinant human integrin αvβ6 (Homo sapiens, UniProt P06756+P18564)
Sequence (P06756 31-992 limits assumed): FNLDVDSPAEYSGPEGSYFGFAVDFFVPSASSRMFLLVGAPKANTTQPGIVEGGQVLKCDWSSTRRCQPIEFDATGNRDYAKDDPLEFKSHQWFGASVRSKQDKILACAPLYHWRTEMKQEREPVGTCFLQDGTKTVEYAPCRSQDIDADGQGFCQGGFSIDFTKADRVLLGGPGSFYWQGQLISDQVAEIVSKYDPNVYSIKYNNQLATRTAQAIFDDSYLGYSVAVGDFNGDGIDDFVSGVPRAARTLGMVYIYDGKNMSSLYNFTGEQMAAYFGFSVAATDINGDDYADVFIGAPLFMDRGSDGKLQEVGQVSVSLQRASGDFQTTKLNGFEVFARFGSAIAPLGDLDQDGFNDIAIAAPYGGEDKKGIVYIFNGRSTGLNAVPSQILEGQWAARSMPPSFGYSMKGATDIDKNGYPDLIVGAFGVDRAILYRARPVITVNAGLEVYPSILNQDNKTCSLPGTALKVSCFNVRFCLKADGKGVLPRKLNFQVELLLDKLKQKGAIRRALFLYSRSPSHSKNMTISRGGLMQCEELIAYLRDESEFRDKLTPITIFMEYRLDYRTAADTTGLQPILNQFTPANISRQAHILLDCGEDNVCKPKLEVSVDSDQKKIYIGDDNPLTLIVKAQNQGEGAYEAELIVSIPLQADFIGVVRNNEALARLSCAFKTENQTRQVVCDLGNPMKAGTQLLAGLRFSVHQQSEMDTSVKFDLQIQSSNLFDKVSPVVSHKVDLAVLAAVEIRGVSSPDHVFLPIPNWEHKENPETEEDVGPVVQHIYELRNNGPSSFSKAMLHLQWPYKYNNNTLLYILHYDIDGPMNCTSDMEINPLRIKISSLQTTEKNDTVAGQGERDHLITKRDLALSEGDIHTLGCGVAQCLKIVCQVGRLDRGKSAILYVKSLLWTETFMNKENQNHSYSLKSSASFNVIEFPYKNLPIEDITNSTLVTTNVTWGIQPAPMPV
Sequence (P18564 22-707 limits assumed): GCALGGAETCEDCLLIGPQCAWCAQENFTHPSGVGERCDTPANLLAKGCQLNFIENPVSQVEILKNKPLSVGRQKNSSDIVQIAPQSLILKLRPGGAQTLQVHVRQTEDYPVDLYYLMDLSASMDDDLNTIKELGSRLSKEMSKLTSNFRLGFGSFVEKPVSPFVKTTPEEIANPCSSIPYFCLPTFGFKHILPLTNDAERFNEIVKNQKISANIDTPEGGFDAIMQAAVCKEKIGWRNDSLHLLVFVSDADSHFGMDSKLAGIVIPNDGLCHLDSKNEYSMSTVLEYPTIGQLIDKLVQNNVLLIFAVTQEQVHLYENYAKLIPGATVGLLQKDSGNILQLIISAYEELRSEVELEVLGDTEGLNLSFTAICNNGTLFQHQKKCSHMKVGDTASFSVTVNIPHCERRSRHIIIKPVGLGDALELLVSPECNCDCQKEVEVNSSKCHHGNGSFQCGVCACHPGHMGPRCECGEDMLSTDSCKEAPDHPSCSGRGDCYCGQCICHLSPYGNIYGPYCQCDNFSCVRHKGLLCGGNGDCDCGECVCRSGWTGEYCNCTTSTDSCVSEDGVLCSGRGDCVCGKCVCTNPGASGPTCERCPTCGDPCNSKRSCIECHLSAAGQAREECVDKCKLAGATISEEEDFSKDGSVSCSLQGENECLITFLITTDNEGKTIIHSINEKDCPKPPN
Assay: Solid phase integrin αvβ6 binding assay
Details: read-out: αvβ6 Inhibition IC50 (nM) - range
Method: Microplates were coated with recombinant human integrin αvβ6 (2 μg/mL) in PBS (100 μL/well 25° C., overnight). The coating solution was removed, washed with wash buffer (0.05% Tween 20; 0.5 mM MnCl2; in 1×TBS). The plate was blocked with 200 μL/well of Block Buffer (1% BSA; 5% sucrose; 0.5 mM MnCl2; in 1×TBS) at 37° C. for 2 h. […] Bound antibody was detected by peroxidase-conjugated streptavidin. The IC50 values for testing compounds were calculated by a four-parameter logistic regression. […]

Examples with answers:
- Chemical Smiles: "Cn1ncc2c(N[C@@H](CCN(CCCCc3ccc4c(n3)NCCC4)CCOc3ccc(F)cc3)C(=O)O)ncnc21"
  Target: "recombinant human integrin αvβ6 (Homo sapiens, UniProt P06756+P18564)"
  IC50: "< 50 nM"
- Chemical Smiles: "Cn1ncc2c(N[C@@H](CCN(CCCCc3ccc4c(n3)NCCC4)CC(F)F)C(=O)O)ncnc21"
  Target: "recombinant human integrin αvβ6 (Homo sapiens, UniProt P06756+P18564)"
  IC50: "> 1000 nM"

Task item: Fill blank: measured IC50 of the compound "COCCN(CCCCc1ccc2c(n1)NCCC2)CC[C@H](Nc1ccnc2ccccc12)C(=O)O" is ____.
Reply: > 1000 nM

Task item: // query IC50 value for entry "COCCN(CCCCc1ccc2c(n1)NCCC2)CC[C@H](Nc1ncnc2cccnc12)C(=O)O"
Reply: < 50 nM

Task item: IC50 lookup needed for "O=C(O)[C@H](CCN(CCO)CCCCc1ccc2c(n1)NCCC2)Nc1ncnc2ccccc12" , thanks.
Reply: < 50 nM

Task item: Look up IC50 for this compound: "Cn1ncc2c(N[C@@H](CCN(CCCCc3ccc4c(n3)NCCC4)CCS(C)(=O)=O)C(=O)O)ncnc21"
Reply: 50 to 250 nM

Task item: Please report the recorded IC50 for "COC[C@@H](F)CN(CCCCc1ccc2c(n1)NCCC2)CC[C@H](Nc1ccncn1)C(=O)O" .
Reply: 250 to 1000 nM

###

Test: Single dose pharmacokinetics (SAD), Example B14
Format: in vivo, human
Details: human, plasma, oral; single dose 120 mg; geometric mean
Source text: Accordingly, a study was designed to assess the PK of Compound 5 after a single dose and following a 6-day course of doses, at levels exceeding the dosages used in preceding Examples B12 and B13. This study was designed to assess at these higher doses aspects of the single-dose and steady-state pharmacokinetics of Compound 5. This study was a single-center, randomized, double-blind, ascending dose, placebo-controlled study in healthy participants. […]
Measured Attribute: Cmax (ng/mL)
Only the number, expressed in ng/mL, is required.

Task item: Look up Cmax for this compound: "COCCN(CCCCc1ccc2c(n1)NCCC2)CC[C@H](Nc1ncnc2ccccc12)C(=O)O"
Reply: 2710
